target: Virion infectivity factor (Human immunodeficiency virus type 1 group M subtype B (isolate BH10)) + Virion infectivity factor (Human immunodeficiency virus type 1 group M subtype B (isolate BRU/LAI)) + Virion infectivity factor (Human immunodeficiency virus type 1 group M subtype B (isolate PCV12)) + Virion infectivity factor (Human immunodeficiency virus type 1 group M subtype B (isolate HXB2)) + DNA dC->dU-editing enzyme APOBEC-3G (Homo sapiens) (UniProt P69720+P69721+P69722+P69723+Q9HC16); experiment: inhibitors of Vif binding to APOBEC3G peptide, primary screen, biochemical, TR-FRET, GST-Vif 1-94, biotin-A3G peptide, dose response retest (AID 1117319); settings: active compounds read high;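 further: Vif residues 1-94 fused to GST binding biotinylated APOBEC3G peptide 110-148; 0% = full assay without inhibitor and 100% = GST in place of GST-Vif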
The whole screen tested about 260,000 compounds, of which about 1,500 (0.58%) were called active. Inconclusive results (about 5%) are left out. Only a sample is shown. Measured potencies and affinities stand elsewhere.
experimental.readout: inhibition

compound	val
COc1ccc(C2CC(=O)c3ccccc3O2)cc1 (stereo unspecified)	18.3% (inactive)
O=[N+]([O-])c1ccc(COc2cccc(CNc3ccc(F)cc3)c2)cc1	26.4% (inactive)
Cc1cc(C)c(S(=O)(=O)N2CCCC(C(=O)NCCC3=CCCCC3)C2)c(C)c1 (stereo unspecified)	9.17% (inactive)
CCc1noc(C)c1C(=O)NC1CCCc2c1cnn2-c1cc(C)cc(C)c1 (stereo unspecified)	-1.36% (inactive)
Clc1ccccc1Cc1noc(CN2CCCCC2c2ccccn2)n1 (stereo unspecified)	2.88% (inactive)
CN1CCN(c2cc(N3CCc4ccccc4C3)c(F)cc2[N+](=O)[O-])CC1	-1.87% (inactive)

====

molecular target: Virion infectivity factor (Human immunodeficiency virus type 1 group M subtype B (isolate BH10)) + Virion infectivity factor (Human immunodeficiency virus type 1 group M subtype B (isolate BRU/LAI)) + Virion infectivity factor (Human immunodeficiency virus type 1 group M subtype B (isolate PCV12)) + Virion infectivity factor (Human immunodeficiency virus type 1 group M subtype B (isolate HXB2)) + DNA dC->dU-editing enzyme APOBEC-3G (Homo sapiens) (UniProt P69720+P69721+P69722+P69723+Q9HC16); assay: inhibitors of Vif binding to APOBEC3G peptide, primary screen, biochemical, TR-FRET, GST-Vif 1-94, biotin-A3G peptide, dose response retest (AID 1117319); details: active compounds read high;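 further: Vif residues 1-94 fused to GST binding biotinylated APOBEC3G peptide 110-148; 0% = full assay without inhibitor and 100% = GST in place of GST-Vif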
The whole screen tested about 260,000 compounds, of which about 1,500 (0.58%) were called active. Roughly 5% stayed inconclusive and do not appear here. Not all results are given here. Results with a measured potency or affinity are listed apart.
Give t when the value for inhibition is at least 20%. Give f when it is less.

compound	label.class
Nc1ncnc(Nc2cc(C(F)(F)F)cc(C(F)(F)F)c2)n1	f
N#CC(C#N)=C1C=C2C=C(N3CCCCCC3)CCC2CC1 (stereo not given)	f
O=C(NCc1cccnc1)c1ccc(CS(=O)(=O)Cc2ccc(Cl)cc2)o1	t
Cc1cccc(C)c1NC(=O)CN1C(=O)S/C(=C\c2cccn2-c2cccc(C(=O)O)c2)C1=O	f
Cc1ccccc1NC(=O)CN1C(=O)S/C(=C\c2cccn2-c2cccc(C(=O)O)c2)C1=O	t

====

target: Virion infectivity factor (Human immunodeficiency virus type 1 group M subtype B (isolate BH10)) + Virion infectivity factor (Human immunodeficiency virus type 1 group M subtype B (isolate BRU/LAI)) + Virion infectivity factor (Human immunodeficiency virus type 1 group M subtype B (isolate PCV12)) + Virion infectivity factor (Human immunodeficiency virus type 1 group M subtype B (isolate HXB2)) + DNA dC->dU-editing enzyme APOBEC-3G (Homo sapiens) (UniProt P69720+P69721+P69722+P69723+Q9HC16); experiment: inhibitors of Vif binding to APOBEC3G peptide, primary screen, biochemical, TR-FRET, GST-Vif 1-94, biotin-A3G peptide, dose response retest (AID 1117319); conditions: active compounds read high;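 further: Vif residues 1-94 fused to GST binding biotinylated APOBEC3G peptide 110-148; 0% = full assay without inhibitor and 100% = GST in place of GST-Vif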
Screen size: about 260,000 compounds; about 1,500 (0.58%) were called active. Another 5% or so got no clear call; they are omitted. These entries were drawn from the full list. Entries with a potency or affinity are not part of this list.
experimental.readout: inhibition (%)

molecule	experimental.readout	result.units	val
c1coc(-c2cnc3ccccc3n2)c1	inhibition	%	-5.45
CC(C)(C)C1=NN=C2c3ccccc3C(=O)C21 (stereo not given)	inhibition	%	6.1
COc1cc(OC)cc(C(=O)Nc2cccnc2)c1	inhibition	%	7.36
O=C(O)Cc1c(O)ccc2ccccc12	inhibition	%	3.01
COC(=O)CCC(=O)OC1(C)C(=O)C=C2C=C(C3CC3)N(c3cccc(C#N)c3)C=C2C1=O (stereo not given)	inhibition	%	11.9
Cc1cc(C)c2c(c1)/C(=N\N=c1\sc3ccccc3n1C)C(=O)N2	inhibition	%	0.52
CCn1c(-c2ccco2)nc2ccccc21	inhibition	%	0.82
CCC(C)[C@H](NC(=O)Nc1ccccc1F)C(=O)OC (stereo not given in full)	inhibition	%	85.4
C=CC(=O)NC(C)(C)CCN1CCOCC1	inhibition	%	0.07
Cc1ccc(NC(=O)N2CCC(C(=O)Nc3ccc(C)cc3C)CC2)cc1	inhibition	%	-2.75
COC(=O)CCC(=O)OC1(C)C(=O)C=C2C=C(C3CC3)N(CCc3ccccn3)C=C2C1=O (stereo not given)	inhibition	%	-2.65
Cc1ccccc1C(=O)O/N=C(\c1ccccc1)c1ccccn1	inhibition	%	5.71
COc1ccc2nc3ccccc3nc2c1	inhibition	%	0.36
CCOC(=O)c1nn(-c2ccccc2C)c(=O)c(C#N)c1C	inhibition	%	12.1
S=c1nc(-c2ccco2)[nH][nH]1	inhibition	%	6.53
CCOC(=O)c1nc(C)n(-c2ccc(Cl)cc2Cl)n1	inhibition	%	23.2
COCCN1C=C2C(=O)C(C)(OC(=O)CCC(=O)OC)C(=O)C=C2C=C1C1CC1 (stereo not given)	inhibition	%	10.6
Cc1cc(=O)[nH]c2c3ccccc3nn12	inhibition	%	-4.45
c1coc(-c2nc3ccccc3s2)c1	inhibition	%	1.82
CCCCC1=CC2=CC(=O)C(C)(OC(=O)CC)C(=O)C2=CN1CCc1ccccn1 (stereo not given)	inhibition	%	21.2
O=C(O)Cc1ccccc1C(=O)O	inhibition	%	0.17
Cc1c(NC(=O)c2cc(-c3ccccc3)nc3ccccc23)c(=O)n(-c2ccccc2)n1C	inhibition	%	-2.43
c1coc(-c2ncc[nH]2)c1	inhibition	%	0.85
c1coc(Cn2c(-c3ccco3)nc3ccccc32)c1	inhibition	%	6.18
CN1/C(=C\C(=O)COC(=O)c2ccco2)C(C)(C)c2ccccc21	inhibition	%	3.26
